System: Fibroblast
protocol.summary: Incucyte cell viability with human fibroblast; further: filed as whole numbers so only -1 and 0 and 1 occur
Assay type: toxicity, cell-based
condition: 24 h, 10 µM, compound concentration 10 uM, replicate number 1, timepoint 24 hours
reported.endpoint: Growth Rate
Please state the value as a number alone, without comment.

Return Growth Rate for the following molecule: N#CC1(c2ccccn2)CCN(Cc2cc(C(=O)N3CCCC3)c(=O)n3ccccc23)CC1 0

Return Growth Rate for the following molecule: Cc1cc(C(=O)N2Cc3cnn(C)c3Nc3ccccc32)ccc1CNC(=O)N1CCC[C@H]1C(=S)N1CCCN(C)CC1 0

Return Growth Rate for the following molecule: CC(=O)[C@@]1(O)CC[C@H]2[C@@H]3C[C@H](C)C4=CC(=O)CC[C@]4(C)[C@H]3CC[C@@]21C 1

Return Growth Rate for the following molecule: COc1ccccc1C(=O)Nc1cc2c(cc1N1CCCC1)n(C)c(=O)n2C 1

Return Growth Rate for the following molecule: COc1cc2c(Nc3ccc(NC(=O)c4ccccc4)cc3)ncnc2cc1OCCCN1CCOCC1 0

Return Growth Rate for the following molecule: CCCc1c(-c2ccc(O)cc2)nn(-c2ccc(O)cc2)c1-c1ccc(O)cc1 0

Return Growth Rate for the following molecule: COc1cccc(CNC(=O)c2nc3scc(CN(C)Cc4ccccc4)c3c(=O)[nH]2)c1 [T-26f] 0

Return Growth Rate for the following molecule: CCCc1cc(C)[nH]c(=O)c1CNC(=O)c1cc(-c2ccnc(N3CCN(C)CC3)c2)cc2c1cnn2C(C)C 1

Return Growth Rate for the following molecule: CNc1nc(Nc2cnn([C@H]3CCN(C4COC4)C[C@@H]3F)c2Cl)ncc1C(F)(F)F 0

Return Growth Rate for the following molecule: CC1(C)CNc2cc(NC(=O)c3cccnc3NCc3ccncc3)ccc21.O=P(O)(O)O.O=P(O)(O)O [MOTESANIB DIPHOSPHATE] 1

Return Growth Rate for the following molecule: O=C(NOC[C@H](O)CO)c1ccc(F)c(F)c1Nc1ccc(I)cc1F 1

Return Growth Rate for the following molecule: Nc1nc(NCCc2ccc(O)cc2)nc2nc(-c3ccco3)nn12 1

Return Growth Rate for the following molecule: c1ccc2oc(-c3csc(C4CCN(Cc5nc6ncccc6[nH]5)CC4)n3)cc2c1 0

Return Growth Rate for the following molecule: CCCCN(CCCC)C(=O)CN1C[C@@H](c2cc(OC)c3c(c2)OCO3)[C@H](C(=O)O)[C@H]1CC(C)(C)CCC 0

Return Growth Rate for the following molecule: Nc1nc(NCc2ccccc2)nc(-c2cccc(CO)c2)n1 0

Return Growth Rate for the following molecule: Cc1cc(SCc2sc(-c3ccc(C(F)(F)F)c(F)c3)nc2C)ccc1OCC(=O)O 1

Return Growth Rate for the following molecule: CCOc1cc(N2CCC(O)CC2)ccc1Nc1ncc2c(n1)N(C1CCCC1)CCC(=O)N2C 0

---

Test system: Fibroblast
protocol.summary: Incucyte cell viability with human fibroblast; further: filed as whole numbers so only -1 and 0 and 1 occur
Type: toxicity, cell-based
condition: 18 h, 10 µM, compound concentration 10 uM, replicate number 2, timepoint 18 hours
reported.endpoint: Growth Rate
Please state the value as a number alone, without comment.

Return Growth Rate for the following molecule: CN(C)CCCn1cc(C2=C(c3c[nH]c4ccccc34)C(=O)NC2=O)c2ccccc21 1

Return Growth Rate for the following molecule: CC1(C)CNc2cc(NC(=O)c3cccnc3NCc3ccncc3)ccc21.O=P(O)(O)O.O=P(O)(O)O [MOTESANIB DIPHOSPHATE] 0

Return Growth Rate for the following molecule: FC(F)(F)c1c(N2CCC(c3ccccc3)CC2)ccn2c(CC3CC3)nnc12 0

Return Growth Rate for the following molecule: Cc1cc2c(cc1N1C(=O)c3cccc4c(CCCO)ccc(c34)C1=O)n(C)c(=O)n2C 1

Return Growth Rate for the following molecule: Nc1ccc(C(=O)Nc2cccc(-c3nc(N4CCOCC4)c4oc5ncccc5c4n3)c2)cn1 1

Return Growth Rate for the following molecule: C[C@H](CO)Nc1nc(SCc2cccc(Cl)c2F)nc2[nH]c(=O)sc12 0

Return Growth Rate for the following molecule: C[C@@H](NCCc1ccc(O)cc1)[C@@H](O)c1ccc(O)cc1.Cl (relative stereo) 1

Return Growth Rate for the following molecule: COc1cccc(OC)c1-c1cc(C(=O)NC2(C(=O)O)C3CC4CC(C3)CC2C4)nn1-c1ccnc2cc(Cl)ccc12 (stereo not drawn) 0

Return Growth Rate for the following molecule: CCc1cc2c(c(CC)n1)CCC(=O)N2Cc1ccc(-c2ccccc2-c2nnn[nH]2)cc1.Cl 1

Return Growth Rate for the following molecule: CC(C)CC(=O)N1CCc2nc(-c3ccc(Br)cc3)nc(N(C)Cc3ccccc3)c2C1 0

Return Growth Rate for the following molecule: Cn1cc(-c2ccc3occ(-c4ccccc4-c4ccccc4)c3n2)cn1 1

Return Growth Rate for the following molecule: CN(C)CC[C@@H](c1ccc(Cl)cc1)c1ccccn1.O=C(O)/C=C\C(=O)O [DEXCHLORPHENIRAMINE MALEATE] 0

Return Growth Rate for the following molecule: O=C(NC[C@H](O)CN1CCc2ccccc2C1)c1ccnc(NC2CCC2)c1 1

Return Growth Rate for the following molecule: O=C(O)c1ccc2c(c1)nc(Nc1cccc(Cl)c1)c1ccncc12 1

Return Growth Rate for the following molecule: CCCCc1nc(Cl)c(CO)n1Cc1ccc(-c2ccccc2-c2nn[nH]n2)cc1 0

Return Growth Rate for the following molecule: O=C(NCc1ccc(F)cc1)C1CCN(S(=O)(=O)c2cc(Cl)cc(Cl)c2)CC1 1

Return Growth Rate for the following molecule: COc1cccc(CNC(=O)c2nc3scc(CN(C)Cc4ccccc4)c3c(=O)[nH]2)c1 [T-26f] 1

Return Growth Rate for the following molecule: Cc1nc(C#Cc2ccnc(Cl)c2)c(C)n1-c1ccc(OC(F)(F)F)cc1 0
